Recorded values, source ChEMBL document CHEMBL3751661.

molecular target: 5-hydroxytryptamine receptor 2C (Rattus norvegicus, UniProt P08909); experiment: Displacement of [3H]mesulergine from 5HT2C in Sprague-Dawley rat whole brain membranes after 1 hr by liquid scintillation spectrometry
Some compounds, each annotated with its measured log10(Ki).
Scale type: logarithmic (base 10). Underlying Ki unit: nM.

Example compounds with recorded log10(Ki):
>  <Compound>
CN(C)CCN(Cc1ccccc1)S(=O)(=O)c1ccc(NC(=O)Nc2ccc3c(ccn3C)c2)cc1

>  <log10(Ki)>
1.16

$$$$
>  <Compound>
Cc1ccc(NC(=O)Nc2ccc(OC(CCN(C)C)c3ccccc3)cc2)cc1Cl (stereo not drawn)

>  <log10(Ki)>
0.48

$$$$
>  <Compound>
Cc1cc2c(cc1Cl)N(C(=O)Nc1ccc(OC(CCN(C)C)c3ccccc3)cc1)CC2 (stereo not drawn)

>  <log10(Ki)>
-0.22

$$$$
>  <Compound>
COc1ccc(NC(=O)Nc2ccc(S(=O)(=O)N(CCN(C)C)Cc3ccccc3)cc2)cc1Cl

>  <log10(Ki)>
1.21

$$$$
>  <Compound>
Cc1ccc(NC(=O)Nc2ccc(S(=O)(=O)N(CCN(C)C)Cc3ccccc3)cc2)cc1Cl

>  <log10(Ki)>
0.65

$$$$
>  <Compound>
CN(C)CCN(Cc1ccccc1)S(=O)(=O)c1cccc(N2CCN(c3cccc(Cl)c3)CC2)c1

>  <log10(Ki)>
0.79

$$$$
>  <Compound>
Cc1cc2c(cc1Cl)N(C(=O)Nc1ccc(S(=O)(=O)N(CCN(C)C)Cc3ccccc3)cc1)CC2

>  <log10(Ki)>
1.64

$$$$
>  <Compound>
CN(C)CCN(Cc1ccccc1)S(=O)(=O)c1ccc(I)cc1

>  <log10(Ki)>
1.06

$$$$

Alright, here's another compound for you.
Quick note, log10(Ki) for CCn1ccc2cc(NC(=O)Nc3ccc(S(=O)(=O)N(CCN(C)C)Cc4ccccc4)cc3)ccc21 landed at 1.42

---

// values below are reported log10 CLH
system: Liver microsome; assay: Intrinsic clearance in human liver microsomes at 2.5 uM; type: ADME
The base-10 logarithm of CLH, taken with CLH in mL/min/g, is what appears here.

Below are worked cases with known answers.
>  <Compound>
COc1ccc(NC(=O)Nc2ccc(OC(CCN(C)C)c3ccccc3)cc2)cc1Cl (stereo unspecified)

>  <log10 CLH>
-0.17

$$$$
>  <Compound>
CN(C)CCN(Cc1ccccc1)S(=O)(=O)c1ccc(I)cc1

>  <log10 CLH>
0.13

$$$$
>  <Compound>
CN(C)CCN(Cc1ccccc1)S(=O)(=O)c1ccc(N2CCN(c3cccc(Cl)c3)CC2)cc1

>  <log10 CLH>
0.16

$$$$
>  <Compound>
Cc1cc2c(cc1Cl)N(C(=O)Nc1ccc(OC(CCN(C)C)c3ccccc3)cc1)CC2 (stereo unspecified)

>  <log10 CLH>
-1.22

$$$$
>  <Compound>
CN(C)CCC(Oc1ccc(NC(=O)Nc2ccc3c(ccn3C)c2)cc1)c1ccccc1 (stereo unspecified)

>  <log10 CLH>
0.42

$$$$

In the following, a different compound is considered.
Recorded log10 CLH for CN(C)CCN(Cc1ccccc1)S(=O)(=O)c1ccc(NC(=O)Nc2ccc3c(ccn3C)c2)cc1 on Liver microsome was 0.60

---

molecular target: 5-hydroxytryptamine receptor 2A (Homo sapiens, UniProt P28223)
Sequence (P28223 whole entry): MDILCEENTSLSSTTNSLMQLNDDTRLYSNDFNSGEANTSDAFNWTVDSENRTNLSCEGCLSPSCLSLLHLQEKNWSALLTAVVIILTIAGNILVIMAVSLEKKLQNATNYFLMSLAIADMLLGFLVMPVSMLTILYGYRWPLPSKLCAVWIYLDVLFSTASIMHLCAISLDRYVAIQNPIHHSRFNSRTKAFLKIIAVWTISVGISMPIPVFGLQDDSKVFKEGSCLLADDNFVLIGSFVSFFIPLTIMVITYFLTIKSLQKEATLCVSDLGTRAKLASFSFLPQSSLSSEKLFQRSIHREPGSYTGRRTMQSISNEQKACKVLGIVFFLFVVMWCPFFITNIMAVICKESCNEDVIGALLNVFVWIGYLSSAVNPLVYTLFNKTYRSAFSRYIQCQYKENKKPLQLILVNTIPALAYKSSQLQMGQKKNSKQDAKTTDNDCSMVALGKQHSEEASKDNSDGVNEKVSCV
Observable: pKi
FYI, pKi means -log10 of a concentration in mol per litre.

The compound CN(C)CCN(Cc1ccccc1)S(=O)(=O)c1ccc(I)cc1 on 5-hydroxytryptamine receptor 2A (Homo sapiens, UniProt P28223): pKi was 8.74

---

biological target: Sodium-dependent serotonin transporter (Rattus norvegicus, UniProt P31652); assay: Displacement of [3H]citalopram from SERT in Sprague-Dawley rat whole brain membranes after 1 hr by liquid scintillation spectrometry
Sequence (P31652 whole entry): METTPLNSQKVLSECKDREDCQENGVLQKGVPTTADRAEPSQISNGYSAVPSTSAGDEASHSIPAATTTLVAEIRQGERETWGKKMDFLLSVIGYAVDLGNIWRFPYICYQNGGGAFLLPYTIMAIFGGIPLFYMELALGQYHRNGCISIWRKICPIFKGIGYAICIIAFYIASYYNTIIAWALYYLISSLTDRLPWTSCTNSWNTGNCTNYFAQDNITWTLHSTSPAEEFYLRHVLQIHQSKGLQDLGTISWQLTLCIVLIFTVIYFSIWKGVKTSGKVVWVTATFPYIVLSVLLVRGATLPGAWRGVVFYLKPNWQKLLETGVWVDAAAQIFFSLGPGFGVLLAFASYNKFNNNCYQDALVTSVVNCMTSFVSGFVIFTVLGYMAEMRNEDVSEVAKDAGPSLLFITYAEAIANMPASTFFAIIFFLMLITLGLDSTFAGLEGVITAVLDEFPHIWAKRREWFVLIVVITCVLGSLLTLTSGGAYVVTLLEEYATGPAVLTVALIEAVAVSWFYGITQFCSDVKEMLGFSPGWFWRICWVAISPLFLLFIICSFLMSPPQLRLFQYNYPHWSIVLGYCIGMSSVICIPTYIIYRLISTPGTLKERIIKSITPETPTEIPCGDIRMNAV
Observable: pKi
Please report pKi as the negative decimal logarithm of the molar concentration, giving only the number.

Solved cases (3 shown):
>  <Compound>
Cc1cc2c(cc1Cl)N(C(=O)Nc1ccc(OC(CCN(C)C)c3ccccc3)cc1)CC2 (centres undefined)

>  <pKi>
7.18

$$$$
>  <Compound>
CCn1ccc2cc(NC(=O)Nc3ccc(S(=O)(=O)N(CCN(C)C)Cc4ccccc4)cc3)ccc21

>  <pKi>
7.18

$$$$
>  <Compound>
COc1ccc(NC(=O)Nc2ccc(S(=O)(=O)N(CCN(C)C)Cc3ccccc3)cc2)cc1Cl

>  <pKi>
7.03

$$$$

Let us examine a further case.
The observed pKi for CN(C)CCN(Cc1ccccc1)S(=O)(=O)c1ccc(C(=O)N2CCN(c3cccc(Cl)c3)CC2)cc1 when tested with Sodium-dependent serotonin transporter (Rattus norvegicus, UniProt P31652) stands at 6.96

---

Target: UniProt:P08909
Sequence (P08909 whole entry): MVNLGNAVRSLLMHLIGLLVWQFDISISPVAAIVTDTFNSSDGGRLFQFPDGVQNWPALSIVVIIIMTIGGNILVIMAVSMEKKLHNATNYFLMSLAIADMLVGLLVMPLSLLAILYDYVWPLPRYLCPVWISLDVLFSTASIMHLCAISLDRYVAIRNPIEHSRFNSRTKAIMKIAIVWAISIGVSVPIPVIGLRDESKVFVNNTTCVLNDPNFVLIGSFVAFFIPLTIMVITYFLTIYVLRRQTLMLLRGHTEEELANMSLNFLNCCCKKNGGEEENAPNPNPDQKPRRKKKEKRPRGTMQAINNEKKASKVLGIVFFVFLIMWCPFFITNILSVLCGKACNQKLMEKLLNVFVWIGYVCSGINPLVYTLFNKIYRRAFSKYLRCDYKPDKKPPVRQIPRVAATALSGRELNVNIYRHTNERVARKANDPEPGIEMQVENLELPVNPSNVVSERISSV
Test: Displacement of [3H]mesulergine from 5HT2C in Sprague-Dawley rat whole brain membranes after 1 hr by liquid scintillation spectrometry
Observable: pKi
# pKi: negative log10 of molar concentration; output just the value

Noted for CN(C)CCN(Cc1ccccc1)S(=O)(=O)c1ccc(NC(=O)N2CCN(c3cccc(Cl)c3)CC2)cc1 : its pKi reads 7.02

---

biological target: 5-hydroxytryptamine receptor 2C (Rattus norvegicus); assay: Displacement of [3H]mesulergine from 5HT2C in Sprague-Dawley rat whole brain membranes after 1 hr by liquid scintillation spectrometry
Observable: Ki (nM)
Your answer is read as nM, so omit the unit and give the number.

>  <Compound String>
Cc1cc2c(cc1Cl)N(C(=O)Nc1ccc(Oc3cccnc3C)nc1)CC2

>  <Val>
0.16

$$$$
>  <Compound String>
CN(C)CCN(Cc1ccccc1)S(=O)(=O)c1ccc(N2CCN(c3cccc(Cl)c3)CC2)cc1

>  <Val>
8.1

$$$$

Note: attention shifts to another entry.
Measured Ki, CN(C)CCN(Cc1ccccc1)S(=O)(=O)c1ccc(C(=O)N2CCN(c3cccc(Cl)c3)CC2)cc1 : 477
